Reference source: PubChem BioAssay (NCI)

- Tested on: M14 melanoma
- ASSAY_SUMMARY: NCI-60 one-dose screen, 48 h (100 = growth as untreated, 0 = no growth, -100 = all killed)
- TEST_CONDITIONS: 10 µM unless noted
This is part of a sample that, as a whole, favours compounds with a hit. Of some 83,000 tested, about 20% had one in any assay.
OBSERVATION_TYPE: growth (%)
Could you give me the number in %? Just the number is fine.

Record excerpt, results attached:
CN(C)CCN1C(=O)c2c(c3c4ccccc4n4c3c3c2c2ccccc2n3C2CC(O)C(O)C4(C)O2)C1=O (stereo not given); 23.9
CC(Sc1ccccc1)C(=O)O (stereo not given); 95.2
COc1ccccc1/C=C1\COc2ccc(O)c(O)c2C1=O; 29
COc1ccc(-c2ccc(-c3ccc(C(=N)N)cn3)s2)cc1Cl; -81.7
c1cc(NCCCCN2CCOCC2)c2ccc3c(ccc4c(NCCN5CCOCC5)ccnc43)c2n1; 92.7

Recorded result, COc1ccc(/C=C/C(=O)c2cc3c(N)c(C(=O)Nc4ccccc4Cl)sc3nc2C)cc1 , growth: 12.1

Recorded result, Cc1ccc2[nH]c(=S)[nH]c(=O)c2c1 , growth: 101

Recorded result, O=C(/C=C/c1cccs1)Nc1ncc(Cc2ccc(Cl)c(Cl)c2)s1 , growth: 29

Recorded result, O=C1/C(=C/c2cn(-c3ccccc3)nc2-c2ccccc2)SC(=S)N1c1ccc(Cl)cc1 , growth: 65.8

Recorded result, CCN(c1cc(-c2ccc(CN3CCC(/C=C/S(=O)(=O)c4ccccc4)CC3)cc2)cc(C(=O)NCc2c(C)cc(C)[nH]c2=O)c1C)C1CCOCC1 , growth: 85.1

Recorded result, CC1=C2[C@@H](CC1)[C@]1(C)O[C@@](C3CC3)(C[C@H]1OC(=O)CO)[C@H]2OC(=O)/C=C/c1ccccc1 , growth: 96.4

Recorded result, COc1ccc2c(c1)CCNC21C(=O)Nc2c(Br)cc(Br)cc21 (stereo not given) , growth: 97.7

Recorded result, COc1cc(-c2nn(-c3cccc(NC(=O)CCN4CCN(C)CC4)c3)cc2-c2ccncc2)ccc1Cl , growth: -41.6

Recorded result, C=C1C(=O)O[C@H]2[C@H]1CC/C(COC(=O)NCCCCNC(=O)OC/C1=C/CC[C@@]3(C)O[C@H]3[C@H]3OC(=O)C(=C)[C@@H]3CC1)=C\CC[C@@]1(C)O[C@@H]21 , growth: 11.5

Recorded result, COC(=O)[C@H]1Cc2c([nH]c3ccccc23)[C@@H](c2cccs2)N1 , growth: 107

Recorded result, Cc1nc(-n2[nH]c(=O)ccc2=O)sc1N=Nc1ccccc1 , growth: 97.7

Recorded result, COC(=O)c1nc(-c2ccc(C)cc2)oc1Sc1ccc(C)cc1 , growth: 93.2

Recorded result, COc1cc(CNC(=O)CCCC/C=C/C(C)C)ccc1OCc1cn(-c2ccc([N+](=O)[O-])cc2)nn1 , growth: 89.7

Recorded result, Cn1cc(C2=C(c3cccc4ccccc34)C(=O)NC2=O)c2cc(Br)ccc21 , growth: 114

Recorded result, CN1CCN(C(=O)OCc2nc3c(N4CCOCC4)nc(Cl)nc3n2C)CC1 , growth: -77.4
